Measured Tryptase At 100 μM % values are reported for all entries that follow.
Test system: Tryptase, from human lung
measurement-notes: Enzymatic assay, tryptase
condition-context: at 100 μM
Where a SMILES comes first, the peptide text is derived from it.
The response must be a number in % with no trailing unit.

>>> reading("CCCC[C@@H]1NC(=O)[C@@H]2CCCN2C(=O)[C@H]2CCCN2C(=O)[C@H](Cc2ccc(O)cc2)NC(=O)[C@@H]2CSSC[C@H](NC1=O)C(=O)N[C@@H]([C@@H](C)O)C(=O)N[C@@H](C)C(=O)N[C@@H](CO)C(=O)N[C@@H](C1CCCCC1)C(=O)N1CCC[C@H]1C(=O)N1CCC[C@H]1C(=O)N[C@@H](CCC(N)=O)C(=O)N2 [Ex. 140] (HELM PEPTIDE1{[Nle].C.T.A.S.[O=C([C@@H](N[*:1])C1CCCCC1)[*:2]].P.P.Q.C.Y.[dP].P}$PEPTIDE1,PEPTIDE1,2:R3-10:R3|PEPTIDE1,PEPTIDE1,1:R1-13:R2$$$V2.0)")
4.2
>>> reading("CC[C@H](C)[C@@H]1NC(=O)[C@H](CO)NC(=O)[C@H](C)NC(=O)[C@H]([C@@H](C)O)NC(=O)[C@@H]2CSSC[C@H](NC(=O)[C@H](CCC(N)=O)NC(=O)[C@@H]3CCCN3C(=O)[C@@H]3CCCN3C1=O)C(=O)N[C@@H](Cc1ccccc1)C(=O)N1CCC[C@@H]1C(=O)N1CCC[C@H]1C(=O)N[C@@H](CCc1ccccc1)C(=O)N2 [Ex. 146] (HELM PEPTIDE1{[O=C([C@H](CCc1ccccc1)N[*:1])[*:2]].C.T.A.S.I.P.P.Q.C.F.[dP].P}$PEPTIDE1,PEPTIDE1,2:R3-10:R3|PEPTIDE1,PEPTIDE1,1:R1-13:R2$$$V2.0)")
22
>>> reading("C[C@@H]1NC(=O)[C@H]([C@@H](C)O)NC(=O)[C@@H]2CSSC[C@H](NC(=O)[C@H](CCC(N)=O)NC(=O)[C@@H]3CCCN3C(=O)[C@@H]3CCCN3C(=O)[C@H](CC3CCCCC3)NC(=O)[C@H](CO)NC1=O)C(=O)N[C@@H](CCC(N)=O)C(=O)N1CCC[C@@H]1C(=O)N1CCC[C@H]1C(=O)N[C@@H](CCc1ccccc1)C(=O)N2 [Ex. 158] (HELM PEPTIDE1{[O=C([C@H](CCc1ccccc1)N[*:1])[*:2]].C.T.A.S.[Cha].P.P.Q.C.Q.[dP].P}$PEPTIDE1,PEPTIDE1,2:R3-10:R3|PEPTIDE1,PEPTIDE1,1:R1-13:R2$$$V2.0)")
13

Next item in the queue.
QUERY: Fill in the blank: the reported Tryptase At 100 μM % of CCCC[C@@H]1NC(=O)[C@@H]2CCCN2C(=O)[C@H]2CCCN2C(=O)[C@H](Cc2ccccc2)NC(=O)[C@@H]2CSSC[C@H](NC1=O)C(=O)N[C@@H]([C@@H](C)O)C(=O)N[C@@H](C)C(=O)N[C@@H](CO)C(=O)N[C@@H]([C@@H](C)CC)C(=O)N1CCC[C@H]1C(=O)N1CCC[C@H]1C(=O)N[C@@H](CCC(N)=O)C(=O)N2 [Ex. 137] (HELM PEPTIDE1{[Nle].C.T.A.S.I.P.P.Q.C.F.[dP].P}$PEPTIDE1,PEPTIDE1,2:R3-10:R3|PEPTIDE1,PEPTIDE1,1:R1-13:R2$$$V2.0) is ____.
RESULT: 5
